# System: RS4; 11 with G101V mutation
# assayOverview: In vitro anti-proliferation assay (ATPlite luminescence) in BCL-2-dependent ALL cell line RS4;11 with G101V mutation
# Type: cell-based
# runConditions: cellular anti-proliferative IC50, about 72 hours, medium with 10% FBS, ATPlite; read-out: RS411-G101V IC50
measuredQuantity: log10(IC50) (log10 of the value in nM)
Lab note - IC50 converted to log10 from values in nM.

Here's what some known entries look like.
Cc1ccccc1[C@@H]1CN(Cc2cnc(N3CCOC[C@@H]3C)c(C(F)(F)F)c2)CCN1C1CC2(CCN(c3ccc(C(=O)NS(=O)(=O)c4cc5c(c([N+](=O)[O-])c4)N[C@H](C4CCOCC4)CO5)c(N4c5cc6cc[nH]c6nc5O[C@H]5COCC[C@@H]54)c3)CC2)C1 :: 2.36
CC(C)Oc1ccccc1[C@@H]1CN(C2CCC(C)(O)CC2)CCN1C1CC2(CCN(c3ccc(C(=O)NS(=O)(=O)c4cc5c(c([N+](=O)[O-])c4)N[C@H](C4CCOCC4)CO5)c(N4c5cc6cc[nH]c6nc5O[C@H]5COCC[C@@H]54)c3)CC2)C1 (some centres unmarked) :: 1.43
CNc1ccc(CN2CCN(C3CC4(CCN(c5ccc(C(=O)NS(=O)(=O)c6cc7c(c([N+](=O)[O-])c6)N[C@H](C6CCOCC6)CO7)c(N6c7cc8cc[nH]c8nc7O[C@H]7COCC[C@@H]76)c5)CC4)C3)[C@H](c3ccccc3OC(C)C)C2)cn1 :: 0.99
CC(C)Oc1ccccc1[C@@H]1CN(Cc2ccc(F)c(F)c2)CCN1C1CC2(CCN(c3ccc(C(=O)NS(=O)(=O)c4cc5c(c([N+](=O)[O-])c4)N[C@H](C4CCOCC4)CO5)c(N4c5cc6cc[nH]c6nc5O[C@@H]5CCOC[C@H]54)c3)CC2)C1 :: 0.65
CC(C)Oc1ccccc1[C@@H]1CN([C@H]2CCOc3c2ccc(F)c3F)CCN1C1CC2(CCN(c3ccc(C(=O)NS(=O)(=O)c4cc5c(c([N+](=O)[O-])c4)N[C@H](C4CCOCC4)CO5)c(N4c5cc6cc[nH]c6nc5O[C@H]5COCC[C@@H]54)c3)CC2)C1 :: 1.38
COc1cc(CN2CCN(C3CC4(CCN(c5ccc(C(=O)NS(=O)(=O)c6cc7c(c([N+](=O)[O-])c6)N[C@H](C6CCOCC6)CO7)c(N6c7cc8cc[nH]c8nc7O[C@H]7COCC[C@@H]76)c5)CC4)C3)[C@H](c3ccccc3C)C2)cnc1N1CCOC[C@H]1C :: 1.05

# log10(IC50) (molecule: CC(C)Oc1ccccc1[C@@H]1CN(Cc2ccc(C#N)nc2)CCN1C1CC2(CCN(c3ccc(C(=O)NS(=O)(=O)c4cc5c(c([N+](=O)[O-])c4)N[C@H](C4CCOCC4)CO5)c(N4c5cc6cc[nH]c6nc5O[C@H]5COCC[C@@H]54)c3)CC2)C1 ) is 0.81

# log10(IC50) (molecule: COc1cc(CN2CCN(C3CC4(CCN(c5ccc(C(=O)NS(=O)(=O)c6cc7c(c([N+](=O)[O-])c6)N[C@H](C6CCOCC6)CO7)c(N6c7cc8cc[nH]c8nc7O[C@H]7COCC[C@@H]76)c5)CC4)C3)[C@H](c3ccccc3OC(C)C)C2)cnc1N1CCOC[C@@H]1C ) is 0.58

Ref: patent US20250114374A1
